Cited source: ChEMBL document CHEMBL5291721

Observed AC50, system Type-1 angiotensin II receptor (Homo sapiens, UniProt P30556). Also: assay procedure not described here.

The following compounds have reported results that may help.
{"columns": ["Compound", "Observed Property", "Recorded Measurement"],
 "data": [
  ["COc1c(N2CCNC(C)C2)c(F)cc2c(=O)c(C(=O)O)cn(C3CC3)c12 (centres undefined)", "AC50", "> 10 µM"],
  ["CCCC(CCC)C(=O)O[C@H]1C[C@H]2CC[C@@H](C1)[N+]2(C)C", "AC50", "> 30 µM"],
  ["CC(C)NNC(=O)c1ccncc1", "AC50", "> 30 µM"],
  ["CN(CCCN1c2ccccc2CCc2ccccc21)CC(=O)c1ccc(Cl)cc1", "AC50", "> 30 µM"]
]}

Ask: Identify AC50 associated with the compound `[H]/N=C(/N)c1ccc(NCc2nc3cc(C(=O)N(CCC(=O)O)c4ccccn4)ccc3n2C)cc1`
Reply: > 30 µM

Ask: Report AC50, nothing else, for this compound: NS(=O)(=O)c1cc(-c2nnn[nH]2)c(NCc2cccs2)cc1Cl [AZOSEMIDE]
Reply: > 30 µM

Ask: Report measured AC50; entry is CN1C(=O)CC(c2ccccc2)C1=O (centres undefined) [PHENSUXIMIDE]
Reply: > 10 µM

Ask: Give AC50 for CC(C)NCC(O)COc1ccc(COCCOC(C)C)cc1 (centres undefined)
Reply: > 30 µM

Ask: Output measured AC50 for this item: COC(=O)C1=C(C)NC(C)=C(C(=O)OCC(C)C)C1c1ccccc1[N+](=O)[O-] (centres undefined)
Reply: > 10 µM

* * *

Catalogue of compounds with associated AC50
biological target: UniProt:P21731
Sequence (P21731 whole entry): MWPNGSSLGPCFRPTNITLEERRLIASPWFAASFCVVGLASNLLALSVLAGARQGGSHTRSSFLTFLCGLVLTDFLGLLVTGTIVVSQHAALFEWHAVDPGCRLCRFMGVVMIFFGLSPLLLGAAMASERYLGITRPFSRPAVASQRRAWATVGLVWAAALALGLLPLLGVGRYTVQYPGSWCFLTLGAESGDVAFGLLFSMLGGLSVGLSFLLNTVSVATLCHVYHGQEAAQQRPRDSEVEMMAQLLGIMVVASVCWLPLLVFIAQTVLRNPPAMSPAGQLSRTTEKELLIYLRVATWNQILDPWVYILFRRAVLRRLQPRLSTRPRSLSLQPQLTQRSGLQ

{"columns": ["Compound", "Observed Property", "Recorded Measurement"],
 "data": [
  ["CN1CCN(C(=O)OC2c3nccnc3C(=O)N2c2ccc(Cl)cn2)CC1 (stereo not given)", "AC50", "> 30 µM"],
  ["CCOC(=O)[C@H](CCc1ccccc1)N[C@@H](C)C(=O)N1CCC[C@H]1C(=O)O", "AC50", "> 30 µM"],
  ["O=C(O)c1cc(-c2ccc(F)cc2F)ccc1O", "AC50", "> 10 µM"],
  ["C[N+](C)(C)CC(=O)O", "AC50", "> 30 µM"],
  ["CCOC(=O)[C@H](CCc1ccccc1)N[C@H]1CCCN2CCC[C@@H](C(=O)O)N2C1=O", "AC50", "> 30 µM"],
  ["COc1ccc(C(=O)NCc2ccc(OCCN(C)C)cc2)cc1OC [ITOPRIDE]", "AC50", "> 30 µM"],
  ["Cc1cc(-c2ccccc2)nnc1NCCN1CCOCC1", "AC50", "> 30 µM"],
  ["O=C(Nc1ccccc1)OCC(CN1CCCCC1)OC(=O)Nc1ccccc1 (stereo not given)", "AC50", "> 30 µM"],
  ["Cc1c(O)c(=O)ccn1C", "AC50", "> 30 µM"],
  ["CCNC(C)Cc1cccc(C(F)(F)F)c1 (stereo not given)", "AC50", "> 30 µM"]
]}

Ask: Enter recorded AC50 with UniProt:P21731 for CCCCCCCCOc1ccccc1C(=O)Nc1ccc(C(=O)OCC[N+](C)(CC)CC)cc1 [OTILONIUM BROMIDE] here.
Reply: > 30 µM

Ask: Param request: AC50 | system UniProt:P21731 | item CC(C)C(=O)Nc1ccc([N+](=O)[O-])c(C(F)(F)F)c1 [FLUTAMIDE]
Reply: > 30 µM
